System: ACHN renal
Assay: NCI-60 one-dose screen, 48 h
Conditions: 10 µM unless noted
The panel holds about 83,000 compounds, 20% with a hit somewhere; the sample as a whole holds those more often. Active and inactive are the calls of the source. How the source made its calls: active means growth percent below 10; inactive means the rest.
Field 'call' accepts active, inactive

Below, 10 molecules whose answers are already recorded.
| molecule | assayed-target | assigned-label |
| --- | --- | --- |
| O=C(/C=C/c1cccc([N+](=O)[O-])c1)c1ccc(O)c(CN2CCN(c3cc4c(cc3F)c(=O)c(C(=O)O)cn4C3CC3)CC2)c1 | ACHN renal | active |
| O=C(CN1C(=O)/C(=C/c2ccc(Cl)cc2)SC1=S)NCCCN1CCOCC1 | ACHN renal | inactive |
| COc1cc2c(cc1-c1c(C)noc1C)ncc1nc(C3CCOCC3)n([C@H](C)COC(F)F)c12 | ACHN renal | inactive |
| COc1ccc(-n2nc(C)c3c(Nc4ccc(NC(=O)Nc5c(Cl)cccc5Cl)cc4)ncnc32)cc1 | ACHN renal | inactive |
| Oc1ccc(N=Cc2ccccc2O)cc1 | ACHN renal | inactive |
| Cc1ccc(NS(=O)(=O)c2ccc(-c3cnc(C4CC4)o3)cc2)cc1C | ACHN renal | inactive |
| COc1ccc(C(=O)c2sc3nc(C)cc(C)c3c2N)cc1OC | ACHN renal | inactive |
| OCC(O)c1nc2ccc3[nH]ncc3c2c2c1CCCC2 (stereo not given) | ACHN renal | active |
| CCCCCCN(CCCCCC)C(=N)c1ccnc2ccccc12 | ACHN renal | inactive |
| COc1ccc(-c2nc3ccc(-c4nc5ccc(N6CCN(C)CC6)cc5[nH]4)cc3[nH]2)cc1OC | ACHN renal | inactive |

Lab log entry: CSc1nc(Nc2cccc(NC(=O)CCl)c2)c(C#N)c(-c2cccc([N+](=O)[O-])c2)n1 — outcome as called in the assay? inactive

So what was the verdict on Nc1n[nH]c2ccc([C@@H]3Nc4ccc5cn[nH]c5c4[C@H]4C5CCC(C5)[C@@H]34)cc12 (stereo not given in full) in this test? inactive

# outcome recorded in this test, key = COc1ccc2c(c1)O/C(=C\c1cccc(OCC(=O)Nc3nc4c(s3)CCCC4)c1)C2=O inactive

What was the test verdict on CCc1nc(N)nc(N)c1C#CC(C)c1ccc(-c2ccncc2)cc1Cl (stereo not given) ? inactive

Assay outcome for FC(F)(F)c1ccc(-c2cn3nc(-c4c[nH]c5ccc(Br)cc45)sc3n2)cc1 : what was it? inactive

Would you mind telling me which call this test gave O=C1/C(=C/c2ccc(Cl)cc2)SC(=S)N1CCc1ccc(O)cc1 ? inactive

Record request — test call for COc1ccc(NC2=C(Sc3nc(C)cc(C)n3)C(=O)N(Cc3ccccc3)C2=O)cc1Cl inactive

Just curious, what result did Nc1ccc(-c2cc3c(Nc4ccc(Oc5cccc(C(F)(F)F)c5)c(Cl)c4)ncnc3s2)cc1 get here? inactive

What is the recorded call for this molecule in the test? Cc1[nH]c(-c2ccc3cc[nH]c3c2)c2c1C(=O)CCCC2 inactive

What was the test verdict on Fc1ccc2[nH]cc(SSc3c[nH]c4ccc(F)cc34)c2c1 ? inactive

Source listed as PubChem BioAssay (NCI).
